assay: Tmax in ICR mouse at 3 mg/kg, po measured for 0.25 to 24 hrs by UPLC-MS/MS analysis; format: ADME, organism-based; details: in vivo, time 0.25-24 hrs
measuredQuantity: Tmax (h)
Use h as the unit, but write only the number.

get_value(item= CC(=O)c1cccc(NS(=O)(=O)c2ccc(C(=O)Nc3nc(-c4cccc(F)c4)cs3)cc2)c1 , readout=Tmax) returns 3.33

###

Molecular target: D-3-phosphoglycerate dehydrogenase (Homo sapiens, UniProt O43175)
Sequence (O43175 whole entry): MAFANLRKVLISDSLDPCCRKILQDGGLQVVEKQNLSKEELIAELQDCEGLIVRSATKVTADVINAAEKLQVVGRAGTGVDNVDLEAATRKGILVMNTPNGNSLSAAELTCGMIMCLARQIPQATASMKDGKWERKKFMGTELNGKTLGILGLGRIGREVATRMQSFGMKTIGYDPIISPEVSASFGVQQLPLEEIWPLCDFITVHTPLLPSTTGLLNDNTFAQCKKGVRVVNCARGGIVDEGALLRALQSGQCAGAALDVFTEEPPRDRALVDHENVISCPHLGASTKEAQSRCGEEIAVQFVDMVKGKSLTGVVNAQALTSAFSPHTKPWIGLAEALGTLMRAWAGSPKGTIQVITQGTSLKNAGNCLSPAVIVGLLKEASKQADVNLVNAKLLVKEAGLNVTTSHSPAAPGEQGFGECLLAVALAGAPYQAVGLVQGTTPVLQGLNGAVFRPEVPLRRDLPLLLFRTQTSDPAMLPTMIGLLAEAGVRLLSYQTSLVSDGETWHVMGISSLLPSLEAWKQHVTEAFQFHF
Assay: Inhibition of wild type PHGDH (unknown origin) preincubated for 30 mins followed by substrate addition and measured after 5 mins
Reported pIC50 is given for each of the following compounds.
// returns pIC50 (minus log10 of molar concentration), number only

Cc1cc(Cl)c2cc(C(=O)N[C@H](CO)c3ccc(S(=O)(=O)CC(=O)O)cc3)n(C)c2c1	7.00

Kindly consider the entry below.
For this compound ( CC(=O)c1cccc(NS(=O)(=O)c2ccc(C(=O)Nc3nc(-c4cccc(F)c4)cs3)cc2)c1 ), measured pIC50 is 5.55

###

assay: Microsomal stability in rat liver microsomes assessed as half life measured upto 60 mins by HPLC-MS/MS analysis; format: ADME, Microsome
measuredQuantity: half-life
Include the unit right after the number.

Completed entries (count: 3):
COc1cccc(-c2csc(NC(=O)c3ccc(S(=O)(=O)Nc4cccc(C(C)=O)c4)cc3)n2)c1	0.84 min
CC(=O)c1cccc(NS(=O)(=O)c2ccc(C(=O)Nc3nc(-c4cccc(C)c4)cs3)cc2)c1	0.9 min
CC(=O)c1cccc(NS(=O)(=O)c2ccc(C(=O)Nc3nc(-c4cccc(F)c4)cs3)cc2)c1	37.1 min

Now consider the entry below.
In plain terms, COc1ccccc1-c1csc(NC(=O)c2ccc(S(=O)(=O)Nc3cccc(C(C)=O)c3)cc2)n1 has a documented half-life of 2.5 min

###

# maps each entry to its IC50
test system: MDA-MB-468; test: Antiproliferative activity against human MDA-MB-468 cells expressing PHGDH assessed as reduction in cell viability measured for 72 hrs by CCK-8 assay; type: functional, cell-based; settings: MDA-MB-468, 72 h

COc1ccccc1-c1csc(NC(=O)c2ccc(S(=O)(=O)Nc3cccc(C(C)=O)c3)cc2)n1	5.5 µM
O=C(Nc1nc(-c2ccccc2)cs1)c1ccc(S(=O)(=O)Nc2cccc(N3CCOCC3)c2)cc1	> 100 µM

Memo: CN1CCN(c2cccc(NS(=O)(=O)c3ccc(C(=O)Nc4nc(-c5ccccc5)cs4)cc3)c2)CC1 , reported IC50: 9.7 µM

IC50 for CC(=O)c1cccc(NS(=O)(=O)c2ccc(C(=O)Nc3nc(-c4ccccc4)cs3)cc2)c1 is 8.4 µM

// IC50 value for O=C(Nc1nc(-c2ccccc2)cs1)c1ccc(S(=O)(=O)Nc2cccc(CCO)c2)cc1 : 8.1 µM

###

assay: Cmax in ICR mouse at 3 mg/kg, po measured for 0.25 to 24 hrs by UPLC-MS/MS analysis; type: ADME, organism-based; design: dose 3 mg/kg, time 0.25-24 hrs, route po; conditions: in vivo
measuredQuantity: Cmax (ng/mL)
State just the number; it will be interpreted in ng/mL.

Sample CC(=O)c1cccc(NS(=O)(=O)c2ccc(C(=O)Nc3nc(-c4cccc(F)c4)cs3)cc2)c1 ; Cmax observed: 8840
